molecular target: human-sourced α-glucosidase recombinant expressed in Saccharomyces cerevisiae; assay: α-glucosidase inhibitory assay (pNPG substrate); details: PBS pH 6.8, 37 °C, absorbance at 405 nm, preliminarily investigated, read-out: α-glucosidase inhibition IC50
MEASURE NAME: IC50 (µM)

>  <COMPOUND>
COc1cc(O)c2c(=O)occ(C(=O)CO)c2c1

>  <TEST SYSTEM>
human-sourced α-glucosidase recombinant expressed in Saccharomyces cerevisiae

>  <MEASURED RESULT>
36

$$$$
>  <COMPOUND>
CC(=O)O[C@@H]1C[C@@]2(C)[C@@H](CC[C@@H](C)[C@]23Cc2c(cc(CO)c(C=O)c2O)O3)C(C)(C)[C@H]1O [Compound 1, Myrothecisin A]

>  <TEST SYSTEM>
human-sourced α-glucosidase recombinant expressed in Saccharomyces cerevisiae

>  <MEASURED RESULT>
500

$$$$
>  <COMPOUND>
Cc1c(CO)oc(=O)c2c(O)cc(O)cc12

>  <TEST SYSTEM>
human-sourced α-glucosidase recombinant expressed in Saccharomyces cerevisiae

>  <MEASURED RESULT>
370

$$$$

Values were extracted from paper PMC6213923.
